FYI, the data here is from patent US10766869B2.

- Tested on: primary rat mixed cortical cells
- measurement description: In vitro myelination assay (MBP positive myelin strands, fold myelin pixels above background)
- Assay type: cell-based
- assay setup: Rattus norvegicus, 1.0 μM compound, relative to baseline of no added compound; read-out: Fold myelin pixels above background
Provide the reported fold induction at 1 µM of each item.

q: Give fold induction at 1 µM for the following molecule: Cc1cc(Nc2ncn(-c3ccccc3)n2)cc(N2CCN(CC3(C)COC3)CC2)c1 [Compound 431]
a: 1 to 10

q: Give fold induction at 1 µM for the following molecule: Cc1cc(Nc2ncn(-c3cc(F)cc(F)c3)n2)cc(N2CCC(N3CCN(C)CC3)CC2)c1 [Compound 772]
a: 1 to 10

q: Give fold induction at 1 µM for the following molecule: CCc1cc(Nc2ncn(-c3cnccn3)n2)cc(N2CCN(C3(C)COC3)CC2)c1 [Compound 489]
a: 10 to 100

q: Give fold induction at 1 µM for the following molecule: Cc1cc(Nc2ncn(-c3cc(F)cc(F)c3)n2)nc(C2=CCOCC2)c1 [Compound 774]
a: 1 to 10

q: Give fold induction at 1 µM for the following molecule: Cc1cc(CN2CCN(C3COC3)CC2)cc(Nc2ncn(-c3cc(F)cc(F)c3)n2)c1 [Compound 596]
a: 10 to 100

q: Give fold induction at 1 µM for the following molecule: Cc1cc(Nc2ncn(-c3cc(F)cc(F)c3)n2)cc(NC2CC2)c1 [Compound 448]
a: 100 to 1000

q: Give fold induction at 1 µM for the following molecule: Cc1cc(Nc2ncn(-c3cc(F)cc(F)c3)n2)nc(N2CCN(C)CC2)c1 [Compound 731]
a: 10 to 100

q: Give fold induction at 1 µM for the following molecule: Cc1cc(Nc2ncn(-c3cc(F)cc(F)c3)n2)nc(C2=CCNCC2)c1 [Compound 631]
a: 1 to 10

q: Give fold induction at 1 µM for the following molecule: Cc1cc(Nc2ncn(-c3cc(F)cc(F)c3)n2)cc(OC2CCOC2)c1 (stereo not shown) [Compound 703]
a: 10 to 100

q: Give fold induction at 1 µM for the following molecule: Cc1cc(Nc2ncn(-c3cc(F)cc(F)c3)n2)cc(C2(O)CCN(C3COC3)C2)c1 (stereo not shown) [Compound 416]
a: 100 to 1000

q: Give fold induction at 1 µM for the following molecule: Cc1cc(Nc2ncn(-c3cc(F)cc(F)c3)n2)cc([C@H]2CN(C3COC3)CCO2)c1 (single isomer, unassigned) [Compound 623]
a: 10 to 100

q: Give fold induction at 1 µM for the following molecule: Fc1cc(F)cc(-n2cnc(Nc3cc(C(F)F)cc(N4CC(N5CCOCC5)C4)n3)n2)c1 [Compound 732]
a: 1 to 10

q: Give fold induction at 1 µM for the following molecule: Fc1cc(F)cc(-n2cnc(Nc3cc(C(F)(F)F)cc(N4CC(N5CCOCC5)C4)n3)n2)c1 [Compound 601]
a: 1 to 10

q: Give fold induction at 1 µM for the following molecule: COc1cc(Nc2ncn(-c3cccc(C(F)F)c3)n2)nc(N2CCN(C3COC3)CC2)c1 [Compound 639]
a: 1 to 10

q: Give fold induction at 1 µM for the following molecule: Cc1cc(Nc2ncn(-c3cccc(C(F)(F)F)c3)n2)cc(N2CC(N3CCOCC3)C2)c1 [Compound 651]
a: 10 to 100

q: Give fold induction at 1 µM for the following molecule: Cc1cc(Nc2ncn(-c3cc(F)cc(F)c3)n2)cc(OCc2ccn(C)n2)c1 [Compound 605]
a: 10 to 100

q: Give fold induction at 1 µM for the following molecule: Cc1cc(Nc2ncn(-c3cc(F)cc(F)c3)n2)cc(N2CCOC3(CCC3)C2)c1 [Compound 543]
a: 1 to 10

q: Give fold induction at 1 µM for the following molecule: Cc1cc(Nc2ncn(-c3cc(F)cc(F)c3)n2)cc(N2CC(N3CCO[C@H](C)C3)C2)c1 (single isomer, unassigned) [Compound 696]
a: 10 to 100

q: Give fold induction at 1 µM for the following molecule: CCCc1cc(Nc2ncn(-c3ccc(F)c(F)c3)n2)cc(N2CCN(C3COC3)CC2)c1 [Compound 559]
a: 100 to 1000

q: Give fold induction at 1 µM for the following molecule: CC(C)(C)OC(=O)N1CCN(c2cc(C(F)(F)F)cc(Nc3ncn(-c4cc(F)cc(F)c4)n3)n2)CC1 [Compound 557]
a: ≤ 1

q: Give fold induction at 1 µM for the following molecule: CCc1cc(Nc2ncn(-c3cc(F)ccc3F)n2)cc(N2CCN(C3COC3)CC2)c1 [Compound 417]
a: 100 to 1000

q: Give fold induction at 1 µM for the following molecule: CN1CCN(c2cc(Nc3ncn(-c4cc(F)cc(F)c4)n3)cc(N3CCN(C)CC3)c2)CC1 [Compound 657]
a: 1 to 10

q: Give fold induction at 1 µM for the following molecule: Cc1cc(Nc2ncn(-c3cc(F)cc(F)c3)n2)cc(N2CCN(C)C(C)(C)C2)c1 [Compound 771]
a: 10 to 100

q: Give fold induction at 1 µM for the following molecule: Cc1cc(Nc2ncn(-c3cc(F)cc(F)c3)n2)cc(OCC2CCOC2)c1 (stereo not shown) [Compound 648]
a: 10 to 100

q: Give fold induction at 1 µM for the following molecule: Cc1cc(Nc2ncn(-c3cc(F)cc(C(F)(F)F)c3)n2)cc(N2CCN(C3COC3)CC2)c1 [Compound 757]
a: 10 to 100
